- ASSAY_TARGET: C-C chemokine receptor type 5 (Homo sapiens, UniProt P51681)
- Sequence (P51681 whole entry): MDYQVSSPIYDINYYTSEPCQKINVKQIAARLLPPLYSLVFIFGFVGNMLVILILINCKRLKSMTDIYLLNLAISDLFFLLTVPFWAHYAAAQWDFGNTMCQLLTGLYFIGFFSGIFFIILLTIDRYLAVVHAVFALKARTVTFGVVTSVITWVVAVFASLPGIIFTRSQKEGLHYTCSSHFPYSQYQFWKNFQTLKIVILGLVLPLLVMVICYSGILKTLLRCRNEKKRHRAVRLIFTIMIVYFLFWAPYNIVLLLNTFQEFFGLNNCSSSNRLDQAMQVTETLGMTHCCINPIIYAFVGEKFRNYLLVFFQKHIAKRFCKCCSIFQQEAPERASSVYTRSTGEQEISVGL
- EXPERIMENT_NOTES: Antagonist activity at human CCR5
QUANTITY_NAME: IC50 (nM)

Use the examples below as a reference point.
Cc1cc(C#N)nc(C)c1C(=O)N1C[C@H]2CN(CCC3(c4ccccc4)CCN(C(=O)C4CCCC4)C3)C[C@H]2C1 (some centres not stated): 46
Cc1cc(C#N)nc(C)c1C(=O)N1C[C@H]2CN(CCC3(c4ccccc4)CCN(C(=O)C(C)(C)C)C3)C[C@H]2C1 (some centres not stated): 69
Cc1ncnc(C)c1C(=O)N1C[C@H]2CN(CCC3(c4ccccc4)CN(C(=O)C(C)(C)CO)C3)C[C@H]2C1: 56
Cc1ncnc(C)c1C(=O)N1C[C@H]2CN(CCC3(c4ccccc4)CN(C(=O)C4CCC(F)(F)CC4)C3)C[C@H]2C1: 28
Cc1nc(C(F)(F)F)nc(C)c1C(=O)N1C[C@H]2CN(CCC3(c4ccccc4)CN(C(=O)C4CCC(F)(F)CC4)C3)C[C@H]2C1: 30

A. Cc1ncnc(C)c1C(=O)N1C[C@H]2CN(CCC3(c4cccc(F)c4)CCN(C(=O)C(C)(C)CO)CC3)C[C@H]2C1
B. Cc1cc(C#N)nc(C)c1C(=O)N1C[C@H]2CN(CCC3(c4ccccc4)CN(C(=O)C4CC(F)(F)C4)C3)C[C@H]2C1
Q: Would you kindly point out which of A and B has the smaller IC50 figure? API: response body contains the label of the selected item.
Result: B
